Biological target: UniProtKB P25025
Sequence (P25025 1-360): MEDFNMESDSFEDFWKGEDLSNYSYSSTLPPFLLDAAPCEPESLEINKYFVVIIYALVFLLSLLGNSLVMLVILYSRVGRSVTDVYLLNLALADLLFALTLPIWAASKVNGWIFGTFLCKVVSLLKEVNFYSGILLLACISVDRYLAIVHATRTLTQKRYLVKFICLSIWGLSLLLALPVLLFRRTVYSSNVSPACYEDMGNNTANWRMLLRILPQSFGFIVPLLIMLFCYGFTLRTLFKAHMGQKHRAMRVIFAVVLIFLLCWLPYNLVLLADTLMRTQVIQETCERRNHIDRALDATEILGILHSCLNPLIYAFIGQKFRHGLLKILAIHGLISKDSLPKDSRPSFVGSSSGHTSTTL
MEASURED METRIC: Ki (nM)
Give a bare numeral; the unit nM is implied.

[in] Please look at this compound and report its Ki: CC(C)C[C@H](CO)Nc1nc(SCc2ccccc2)nc2[nH]c(=O)sc12
[out] 79
